Measurement target: T1, integrin αvβ3, purified from human placenta (human, UniProt P06756 31-1048; P05106 27-788)
T1 construct: mature; Native heterodimer, immobilized on ELISA plates or on the BIAcore chip; biotinylated in capture lift and capture ELISA screens; also called αvβ3 receptor; vitronectin receptor
T1 sequence (P06756 31-1048, form in doubt, chain 1 of 2): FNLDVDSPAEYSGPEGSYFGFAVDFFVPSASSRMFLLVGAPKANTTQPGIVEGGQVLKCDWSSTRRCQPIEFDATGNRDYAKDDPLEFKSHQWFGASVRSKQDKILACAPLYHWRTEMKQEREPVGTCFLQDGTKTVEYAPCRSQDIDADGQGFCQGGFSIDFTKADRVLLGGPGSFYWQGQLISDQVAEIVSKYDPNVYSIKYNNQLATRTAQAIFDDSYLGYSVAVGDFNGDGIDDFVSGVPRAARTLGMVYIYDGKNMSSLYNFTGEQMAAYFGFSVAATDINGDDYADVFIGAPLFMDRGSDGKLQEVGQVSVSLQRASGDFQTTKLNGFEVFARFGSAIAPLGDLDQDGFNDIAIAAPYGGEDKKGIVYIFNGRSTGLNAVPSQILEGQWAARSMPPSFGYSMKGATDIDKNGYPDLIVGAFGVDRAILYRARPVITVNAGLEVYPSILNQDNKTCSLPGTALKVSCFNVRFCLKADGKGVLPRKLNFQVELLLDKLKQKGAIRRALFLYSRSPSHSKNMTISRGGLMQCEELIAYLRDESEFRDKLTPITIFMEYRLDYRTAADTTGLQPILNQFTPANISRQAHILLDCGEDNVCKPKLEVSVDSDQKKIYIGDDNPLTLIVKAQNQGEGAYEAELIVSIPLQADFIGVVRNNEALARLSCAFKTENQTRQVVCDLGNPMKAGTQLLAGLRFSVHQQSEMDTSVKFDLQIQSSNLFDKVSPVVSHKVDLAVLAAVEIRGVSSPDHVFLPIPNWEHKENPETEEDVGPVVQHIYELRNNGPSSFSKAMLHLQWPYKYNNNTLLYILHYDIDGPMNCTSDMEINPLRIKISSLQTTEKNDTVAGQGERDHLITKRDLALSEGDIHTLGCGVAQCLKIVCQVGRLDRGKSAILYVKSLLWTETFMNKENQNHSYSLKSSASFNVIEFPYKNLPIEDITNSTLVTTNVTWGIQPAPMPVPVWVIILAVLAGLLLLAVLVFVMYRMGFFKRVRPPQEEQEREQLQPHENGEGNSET
T1 sequence (P05106 27-788, form in doubt, chain 2 of 2): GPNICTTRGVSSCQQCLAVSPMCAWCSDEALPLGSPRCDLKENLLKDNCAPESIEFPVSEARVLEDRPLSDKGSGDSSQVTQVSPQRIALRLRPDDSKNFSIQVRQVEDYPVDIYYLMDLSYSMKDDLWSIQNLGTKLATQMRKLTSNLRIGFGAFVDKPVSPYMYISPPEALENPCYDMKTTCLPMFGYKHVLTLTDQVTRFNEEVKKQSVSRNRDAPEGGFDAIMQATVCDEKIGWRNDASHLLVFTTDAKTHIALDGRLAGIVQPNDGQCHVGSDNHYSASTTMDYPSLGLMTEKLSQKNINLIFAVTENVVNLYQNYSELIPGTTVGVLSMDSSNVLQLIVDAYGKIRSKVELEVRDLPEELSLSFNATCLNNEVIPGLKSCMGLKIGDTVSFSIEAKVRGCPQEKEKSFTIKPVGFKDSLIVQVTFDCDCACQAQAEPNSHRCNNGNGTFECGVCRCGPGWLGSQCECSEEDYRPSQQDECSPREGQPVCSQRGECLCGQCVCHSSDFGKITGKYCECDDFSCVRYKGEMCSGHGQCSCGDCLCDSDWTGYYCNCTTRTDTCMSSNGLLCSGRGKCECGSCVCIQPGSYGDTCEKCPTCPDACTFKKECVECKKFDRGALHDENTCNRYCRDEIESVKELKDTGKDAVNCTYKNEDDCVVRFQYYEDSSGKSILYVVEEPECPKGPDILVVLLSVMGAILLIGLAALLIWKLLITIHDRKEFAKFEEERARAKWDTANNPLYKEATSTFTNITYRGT
Method: SPR (BIAcore), purified Fab over immobilized αvβ3
Measured parameter: Kd (nM)

Binder	Measured parameter	Readout number
LM609 grafted antibody variant Y100 (Fab, V domains shown, Fab) VH: QVQLVESGGGVVQPGRSLRLSCAASGFTFSSYDMSWVRQAPGKGLEWVAKVSSGGGSTYYLDTVQGRFTISRDNSKNTLYLQMNSLRAEDTAVYYCARHNYGSYAYWGQGTTVTVSS VL: EIVLTQSPATLSLSPGERATLSCQASQSISNHLHWYQQRPGQAPRLLIRYRSQSISGIPARFSGSGSGTDFTLTISSLEPEDFAVYYCQQSGSWPHTFGGGTKVEIK	Kd	14.3
LM609 grafted antibody Fab (Fab, V domains shown, Fab expressed from M13 phage vector, human kappa chain, peptide tag on the carboxyl-terminus of the heavy chain; also called LM609 grafted Fab; parent LM609 grafted antibody) VH: QVQLVESGGGVVQPGRSLRLSCAASGFTFSSYDMSWVRQAPGKGLEWVAKVSSGGGSTYYLDTVQGRFTISRDNSKNTLYLQMNSLRAEDTAVYYCARHNYGSFAYWGQGTTVTVSS VL: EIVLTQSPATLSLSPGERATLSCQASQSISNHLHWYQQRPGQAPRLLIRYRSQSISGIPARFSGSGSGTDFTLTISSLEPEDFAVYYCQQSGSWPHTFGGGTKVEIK	Kd	27.6
LM609 grafted antibody variant S102 (Fab, V domains shown, Fab; also called clone S102) VH: QVQLVESGGGVVQPGRSLRLSCAASGFTFSSYDMSWVRQAPGKGLEWVAKVSSGGGSTYYLDTVQGRFTISRDNSKNTLYLQMNSLRAEDTAVYYCARHNYGSFASWGQGTTVTVSS VL: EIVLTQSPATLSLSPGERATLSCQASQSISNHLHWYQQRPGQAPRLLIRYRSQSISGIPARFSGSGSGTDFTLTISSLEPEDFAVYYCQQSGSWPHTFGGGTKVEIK	Kd	6
LM609 grafted antibody variant Y101 (Fab, V domains shown, Fab) VH: QVQLVESGGGVVQPGRSLRLSCAASGFTFSSYDMSWVRQAPGKGLEWVAKVSSGGGSTYYLDTVQGRFTISRDNSKNTLYLQMNSLRAEDTAVYYCARHNYGSFYYWGQGTTVTVSS VL: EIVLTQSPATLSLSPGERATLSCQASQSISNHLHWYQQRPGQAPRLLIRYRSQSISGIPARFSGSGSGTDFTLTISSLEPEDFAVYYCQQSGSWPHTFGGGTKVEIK	Kd	2.2
